- measurement-target: Influenza virus A/California/7/2009pdm (H1N1pdm) (Influenza A virus A/California/7/2009pdm (H1N1pdm))
- experimental-protocol: ELISA on coated viral particles
Give Binding activity (absorbance at 492 nm) for every item shown.
The answer should be a number; do not append a unit.

Query block: So what's the measured Binding activity (absorbance at 492 nm) for this one? Group 64 representative clone F083-301, Fab-cp3-type antibody (Fab, V domains shown) VH: QVQLVQSGAEVKKPGSSVKVSCKASGGIFNSNAISWVRQAPGQGLEWMGGIIGIFGTANYAQKFQGRVTIAADQSTNTVFMELSSLTSEDTAVYFCARSRGYSFGYGTDYFDYWGQGTLVTVSS VL: DIVMTQSPSTLSASVGDRVTITCRASQSISSWLAWYQQAPGKAPKLLIYEASKLQSGVPSRFSATGSGTEFTLTIASLQPEDFAIYYCQHYEAYPFSFGPGTKLDVK
Result block: 0.46

Query block: State the recorded Binding activity (absorbance at 492 nm) for this entry: Group 56 representative clone F083-318, Fab-cp3-type antibody (Fab, V domains shown) VH: EVQLVQSGAEVKKPGSSVKVSCQASGSIFSNYAINWVRQAPGQGLEWMGGIVPIFGTTRFAQKFQGRLTITADEPRSTAYMELNNLISEDTAVYYCARAPLIYNWYYDLWGRGTLVTVSS VL: EIVLTQSPSSLSASVGDRVTITCRASQGISNYLAWYQQKPGKVPKLLIYAASTLQSGVPSRFSGSGSGTDFTLTISSLQPEDVATYYCQKYNSAPHTFGPGTKVDIK
Result block: 0.71

Query block: Bench note: what Binding activity (absorbance at 492 nm) did Group 63 representative clone F083-336, Fab-cp3-type antibody (Fab, V domains shown) VH: QVQLQQSGAEVKQPGSSVKVSCKASGGIFRSNAISWVRQAPGQGLEWMGGIVALFGTANYAQKFQGRVTITADESTSTVYMELSSLRSEDTARYYCARNSGYHISGFYLDYWGQGTLVTVSS VL: EIVLTQSPSSLSASVGDRVTITCRASQGISNYLAWYQQRPGKVPKLLIYTASTLLSGVPSRFSGGGSGTDYTLTISSLQPEDVATYYCQEYKSVPLTFGPGTKVEIK show?
Result block: 1.56

Query block: Endpoint output: Binding activity (absorbance at 492 nm) of Group 1 representative clone F080-227, Fab-cp3-type antibody (Fab, V domains shown) VH: QVQLQESGAEVKKPGSSVKVSCKASGGIFRRNAISWVRQAPGQGLEWMGGIIAIFGTANYAQKFQGRVTITADESTSTVYMELSSLRPEDTAVYYCARGPNYYENFFDYWGQGTLVTVSS VL: DIVMTQSPSSLSASVGDRLDLTCRASQDIANSLAWYKQRPGKAPELLVFGASRLEGGVPSRFSGTRAGTDFTLTISSLQPEDLGTYFCQQYFSFPRTFGQGTTLDLR . Value?
Result block: 2.95

Query block: Endpoint output: Binding activity (absorbance at 492 nm) of Group 36 representative clone F082-243, Fab-cp3-type antibody (Fab, V domains shown) VH: QVQLQQSGAEVKKPGSSVKVSCKASGGIFRKNAISWVRQAPGQGLEWMGGIIAIFGTANYAQKFQGRVTITADDSTNTVYMELTSLRYEDTAVYYCARGPNYYENYFDFWGQGTLVTVSS VL: EIVLTQSPSSLSASLRDTVTITCRTSQAITNYLAWYQQRPGKAPKLLIYAASVLQSGVPSRFSGSGSGTDFTLTISSLQPEDFATYYCQKYDSAPYTFGQGTKLEIK . Value?
Result block: 0.8

Query block: # get_value(readout='Binding activity (absorbance at 492 nm)', item= Group 59 representative clone F083-351, Fab-cp3-type antibody (Fab, V domains shown) VH: QVQLVQSGADVKKAGSSVKVSCKASGRTFGNYAISWVRQAPGQGLEWMGGITPIFGAANYAQKFQGRVTISADLSTRMVYMDLSSLRSDDTAFYYCAGHPMYHYGSAMDYWGQGTLVTVSS VL: QSVLTQPPSASGTPGQRVSISCFGSRSNVGSSSVNWYQQLPGRAPKLLIQRNDQRPSGVPDRFSGSKSGTSASLAISGLQSDDESTYYCAAWDDSVKSVVFGGGTQLTVLG )
Result block: 2.62

Query block: Look up Binding activity (absorbance at 492 nm) for this binder: Group 58 representative clone F083-307, Fab-cp3-type antibody (Fab, V domains shown) VH: QVQLQQSGADVKKPGSSVKVSCKASGGTFGNYAISWVRQAPGQGLEWMGGITPIFGPANYAQRFQGRVTISADISTRTAYMELSSLRSEDTAIYYCARHPTYYFGSAMEYWGQGTLVTVSS VL: SYELTQPPSVSVAPGQTATITCGGDRIGTGPVHWYQQRPGRAPVLIIYGSTHRPSGIPERFSGSKSVNTATLSISGVGVGDEADYYCQVWDTSTAQPIVFGGGTKLTVLS
Result block: 2.37

Query block: Recorded Binding activity (absorbance at 492 nm) of Group 39 representative clone F082-237, Fab-cp3-type antibody (Fab, V domains shown) VH: QVQLVQSGAEVKKPGSSVKVSCKASGGIFNKYGISWVRQAPGQGLEWMGGILAIFGTTNYAQKFQGRVTISADESSTTVYMELSSLTSEDTAVYYCARGNTYYSSYFDQWGQGTLVTVSS VL: QSVLTQPPSVSVAPGQTATITCGGDKIGTGPVHWYQQMPGRAPVLLIYASTHRPSRIPERFSGSKSDNTATLSISGVGVGDEADYYCQMWDSSSVHPIVFGGGTKLTVLS , please.
Result block: 2.62

Query block: Field request: Binding activity (absorbance at 492 nm) | item: Group 62 representative clone F083-349, Fab-cp3-type antibody (Fab, V domains shown) VH: QVQLVQSGAEVRKPGSSVKVSCKASGVIFIKFAISWVRQAPGQGLEWMGGIIPMFGTTNYAQKFQGRVTITADGSTNTVYMELSSLTSEDTAVYYCAKEEGYYYGSGPLDSWGQGTLVTVSS VL: DIVMTQSPDFLSVSLGERVTINCKSSQTVLNRSNNKNYLAWYQKKPGQPPRLLLYWSSTRESGVPDRFSGSGSETDFALTITNLQAEDLAVYFCQQFYDMPVTFGGGTKLEIK
Result block: 2.79

Query block: Quick one: Binding activity (absorbance at 492 nm) of Group 57 representative clone F083-103, Fab-cp3-type antibody (Fab, V domains shown) VH: QVQLQQSGADVKKAGSSVKVSCKASGRTFGNYAISWVRQAPGQGLEWMGGITPIFGAANYAQKFQGRVTISADLSTRMVYMDLSSLRSDDTAFYYCAGHPTYHYGSAMDYWGQGTLVTVSS VL: QSVLTQPPSVSAAPGQKVTITCSGSSSNIGNNYVSWYQQLPGTAPKLLISEGSNRPSGIPDRFSGSKSGTSATLGITGLQTGDEATYYCATWDDSLSVVLFGGGTRLTVLS ?
Result block: 1.82
